tested on: human SMAD7 mRNA; assay: Dose-dependent inhibition of human SMAD7 mRNA expression in Hep3B cells (Example 3, Study 1 and 2); type: cell-based; conditions: 6670.0 nM, electroporation, approximately 16 hours, Study 2
Strand notation (5' to 3'): a small letter for the sugar, then the base; units joined by * are phosphorothioate-linked, units joined directly phosphodiester-linked; [ ] holds rarer units or linkages, { } end groups; capitals alone tell only the bases. k = constrained ethyl (cEt); [5mC] = 5-methylcytosine; d = 2'-deoxy (DNA)
Returns one of Yes or No; Yes when % inhibition of SMAD7 mRNA expression is >= 80%.

Examples from the recorded data:
799689 (antisense kT*kG*k[5mC]*dT*dA*d[5mC]*dA*dG*dT*dG*dT*d[5mC]*dA*k[5mC]*k[5mC]*kA) [compound 799689] | No
790636 (kA*kG*k[5mC]*dA*dT*d[5mC]*dT*dG*dG*dA*d[5mC]*dA*dG*kT*k[5mC]*kA; antisense) [compound 790636] | Yes
799851 (kA*kA*kG*dT*dG*dT*d[5mC]*d[5mC]*dA*dT*d[5mC]*dA*dA*kG*k[5mC]*kA; antisense) [compound 799851] | No

Task item: In plain terms: is recorded % inhibition of SMAD7 mRNA expression at least 80% for 799967 (kG*kA*k[5mC]*dG*dA*dT*dG*dA*dA*dT*d[5mC]*d[5mC]*dT*kG*kG*k[5mC]; antisense) [compound 799967] ?
Reply: No

###

// reported % inhibition of SMAD7 mRNA expression for each item listed
test system: human SMAD7 mRNA; test: Dose-dependent inhibition of human SMAD7 mRNA expression in Hep3B cells (Example 3, Study 1 and 2); format: cell-based; conditions: 5000.0 nM, electroporation, approximately 16 hours, Study 1
Strand notation (5' to 3'): a small letter for the sugar, then the base; units joined by * are phosphorothioate-linked, units joined directly phosphodiester-linked; [ ] holds rarer units or linkages, { } end groups; capitals alone tell only the bases. e = 2'-O-(2-methoxyethyl) (MOE); [5mC] = 5-methylcytosine; d = 2'-deoxy (DNA)
Express your answer in %, writing the number without its unit.

Consider the worked cases shown below.
771573 (antisense eG*e[5mC]*eT*eT*eG*dG*dG*dA*d[5mC]*dT*dG*d[5mC]*dA*dA*dA*e[5mC]*e[5mC]*eT*e[5mC]*eT) [compound 771573] | 24
771838 (antisense eG*eA*eA*e[5mC]*eT*d[5mC]*d[5mC]*dT*dG*d[5mC]*dA*dG*dG*dA*dT*eG*eA*eG*eG*eG) [compound 771838] | 26
771464 (antisense eG*eA*eG*eA*eG*dG*dG*d[5mC]*dT*d[5mC]*d[5mC]*dT*dG*dG*dA*e[5mC]*eA*e[5mC]*eA*eG) [compound 771464] | 21
771902 (antisense eG*eG*eG*eT*eT*d[5mC]*dT*d[5mC]*d[5mC]*dA*dG*d[5mC]*d[5mC]*dG*d[5mC]*eT*e[5mC]*eA*eG*eA) [compound 771902] | 29
771831 (antisense e[5mC]*eG*eA*eT*e[5mC]*dA*dT*dT*dT*dT*d[5mC]*dT*dA*d[5mC]*dA*e[5mC]*e[5mC]*eT*eT*eT) [compound 771831] | 32

According to the records, this substance 771487 (antisense e[5mC]*eT*eG*e[5mC]*eA*d[5mC]*dG*dG*dT*dA*dA*dA*dG*d[5mC]*d[5mC]*e[5mC]*eG*eT*e[5mC]*e[5mC]) [compound 771487] displays % inhibition of SMAD7 mRNA expression of 7

Briefly, % inhibition of SMAD7 mRNA expression measured for 771416 (e[5mC]*e[5mC]*e[5mC]*e[5mC]*eA*dT*dG*d[5mC]*dG*d[5mC]*dT*d[5mC]*dG*dG*d[5mC]*eT*eG*eT*e[5mC]*e[5mC]; antisense) [compound 771416] : 19

Data point: 771704 (antisense e[5mC]*eA*eG*eG*eA*dG*dG*dG*dT*dA*dT*dG*d[5mC]*dA*d[5mC]*eA*e[5mC]*eT*e[5mC]*eT) [compound 771704] ; % inhibition of SMAD7 mRNA expression = 30

The substance listed as 771937 (antisense eT*e[5mC]*e[5mC]*eA*eG*dT*dG*d[5mC]*dT*dT*dG*dT*dG*d[5mC]*dA*eT*eG*eT*eG*e[5mC]) [compound 771937] shows % inhibition of SMAD7 mRNA expression equal to 4

Lab note: 278478 (antisense eA*e[5mC]*eA*eT*eG*dA*d[5mC]*d[5mC]*dT*d[5mC]*d[5mC]*dG*d[5mC]*dA*d[5mC]*eA*e[5mC]*e[5mC]*eA*eT) [compound 278478] gave % inhibition of SMAD7 mRNA expression of 19

Reported % inhibition of SMAD7 mRNA expression of 771850 (antisense eT*e[5mC]*e[5mC]*e[5mC]*eA*d[5mC]*dT*dT*d[5mC]*dT*d[5mC]*d[5mC]*dT*d[5mC]*dT*eG*eG*e[5mC]*eT*eG) [compound 771850] : 20

###

experiment: Oligonucleotide concentrations in tissues by LC-MS/MS after oral gavage in CD-1 mice (Example 7); format: in vivo; conditions: 500 mg/kg oral gavage once daily for 4 weeks, 48 hours after last dose, liver
Everything with Oligonucleotide concentration, Liver lower than 3 µg/g is not fulfilled; everything else, including exactly 3 µg/g, is fulfilled.

Some solved entries appear below for comparison.
830037 (antisense CTATTGGCTGATCTGG; 3-10-3 cEt gapmer, further chemistry not given here) [compound 830037] | fulfilled
830025 (antisense TTTGTAAATCGAAAGC; 3-10-3 cEt gapmer, further chemistry not given here) [compound 830025] | not fulfilled
829994 (GGAGGCAGGGCCGCGA; 3-10-3 cEt gapmer, further chemistry not given here) [compound 829994] | not fulfilled
790615 (CCAATGAGAATGCTTC; 3-10-3 cEt gapmer, further chemistry not given here) [compound 790615] | not fulfilled
798781 (CGTAAGATTCACAGCA; 3-10-3 cEt gapmer, further chemistry not given here) [compound 798781] | not fulfilled

Task item: Given 830121 (AGAATCAAGCCCTGGC; 3-10-3 cEt gapmer, further chemistry not given here) [compound 830121] , state whether its Oligonucleotide concentration, Liver is at least 3 µg/g.
Reply: not fulfilled

###

test system: human SMAD7 mRNA; test: Antisense inhibition of human SMAD7 mRNA expression in Hep3B cells by 5-10-5 MOE gapmers, single concentration, electroporation, RT-PCR (Example 1, Study 1 and 2); type: cell-based; settings: electroporation with 15,000 nM antisense oligonucleotide (Study 2), 5-10-5 MOE gapmers targeting SEQ ID NO: 1 and 2
Strand notation (5' to 3'): a small letter for the sugar, then the base; units joined by * are phosphorothioate-linked, units joined directly phosphodiester-linked; [ ] holds rarer units or linkages, { } end groups; capitals alone tell only the bases. e = 2'-O-(2-methoxyethyl) (MOE); [5mC] = 5-methylcytosine; d = 2'-deoxy (DNA)
Parameter threshold = 20%. Response is Satisfied when % Inhibition of SMAD7 mRNA meets or exceeds it, else Not satisfied.

Example entries begin here.
771776 (antisense e[5mC]*eT*e[5mC]*eA*eG*d[5mC]*dA*dA*dG*d[5mC]*dT*d[5mC]*dA*dG*dT*eT*e[5mC]*e[5mC]*eT*eG) [compound 771776] | Satisfied
771536 (antisense eA*eG*e[5mC]*eG*eA*dA*dA*d[5mC]*dA*dA*dA*dA*d[5mC]*dA*dG*eA*eA*e[5mC]*eA*e[5mC]) [compound 771536] | Satisfied
771528 (antisense eA*eA*eA*eG*eA*dG*dT*dT*dT*dG*d[5mC]*dA*dT*dG*dA*eA*eA*eA*eG*e[5mC]) [compound 771528] | Not satisfied
771920 (antisense eT*eT*eA*eT*eT*dT*dA*dA*dT*dT*dA*d[5mC]*d[5mC]*d[5mC]*dT*eG*e[5mC]*eT*e[5mC]*eA) [compound 771920] | Satisfied

Task item: Is % Inhibition of SMAD7 mRNA at least 20%? Consider 771425 (e[5mC]*e[5mC]*eT*eT*eG*d[5mC]*d[5mC]*d[5mC]*dA*dG*dG*d[5mC]*dA*dG*d[5mC]*eA*eT*e[5mC]*e[5mC]*eA; antisense) [compound 771425]
Reply: Not satisfied

###

Assay: Hematology assays after oral gavage in CD-1 mice (Example 7)
Format: in vivo
Conditions: 500 mg/kg oral gavage once daily for 4 weeks
Protocol: Groups of 7-8 week old male CD-1 mice were given an oral gavage dose once daily for 4 weeks of 500 mg/kg of Ionis SMAD7 oligonucleotides. Each group contained 8 mice. One group of male CD-1 mice was administered saline by oral gavage daily. Blood obtained from all mouse groups was measured by an ADVIA2120i hematology analyzer (Siemens, USA) for measurements of the various blood cells, as well as other hematology markers. […]
assayEndpoint: Monocytes

Take a look at these entries with their results.
790615 (CCAATGAGAATGCTTC; 3-10-3 cEt gapmer, further chemistry not given here) [compound 790615] | 0.15 10^3/μL
829994 (GGAGGCAGGGCCGCGA; 3-10-3 cEt gapmer, further chemistry not given here) [compound 829994] | 0.10 10^3/μL
830037 (antisense CTATTGGCTGATCTGG; 3-10-3 cEt gapmer, further chemistry not given here) [compound 830037] | 0.13 10^3/μL
830121 (AGAATCAAGCCCTGGC; 3-10-3 cEt gapmer, further chemistry not given here) [compound 830121] | 0.15 10^3/μL
830025 (antisense TTTGTAAATCGAAAGC; 3-10-3 cEt gapmer, further chemistry not given here) [compound 830025] | 0.12 10^3/μL

As a next step, examine the substance that follows.
Measured Monocytes of 798781 (CGTAAGATTCACAGCA; 3-10-3 cEt gapmer, further chemistry not given here) [compound 798781] : 0.18 10^3/μL
